# reported melting point; entries follow

Some molecules with recorded melting point:
CCn1c2ccccc2c2[nH]c(=O)c3nccn3c21 = 315 °C
CCC(NS(C)(=O)=O)P(=O)(Oc1ccccc1)Oc1ccccc1 (stereo not given) = 136 to 139 °C
CC1(C)COC(c2ccc(N)cc2)=N1 = 227 to 230 °C
COC(=O)C1Cc2sc3c(c2C1)C(c1ccccc1Cl)=NCC(=O)N3 (stereo not given) = 178 to 181 °C
O=C(O)c1cc(Cl)cc2c1O[C@@H]1CCCC[C@H]21 (relative stereo) = 132 to 134 °C

GET /values?readout=melting point&item= O=C(Nc1ccc(N2CCNCC2)c(C(F)(F)F)c1)c1ccc(F)c(OCc2cnc3ccccc3c2)c1
76 to 78 °C

Another molecule to look at: CC(C(=S)c1ccc(NC=O)nc1)S(C)=O (stereo not given)
125 to 127 °C

Another molecule to look at: CCc1c(CC(O)N2CCN(c3cc(C)ccn3)CC2)c2cccc3c2n1CCC3 (stereo not given)
60 °C

Another molecule to look at: CCc1cccc(CC)c1NC(=O)CC1c2ccccc2Oc2ccccc21
228 to 230 °C

Another molecule to look at: CCOC(=O)c1c(C)nc2c(c1Cl)c1ccccc1n2C
123 to 124 °C

----------
# reported melting point; entries follow

COc1cc2nc(N3CCN(C(=O)c4nnc(SC)o4)CC3)nc(N)c2cc1OC = 228 to 230 °C
CCC(CC)C(NS(=O)(=O)c1ccc(Br)s1)c1ccnn1-c1ccccc1 (centres undefined) = 120 to 121 °C
COc1cc2c(cc1OC)CN(CCCCc1ccc(NC(=O)c3cnc4ccccc4n3)cc1)CC2 = 144 °C
CCOc1cccc2c1OC(C(F)(F)F)C(C(=O)O)=C2 (centres undefined) = 159 to 161 °C
CCN(CC)CCNC(=O)N1CCCC(S(=O)(=O)c2ccc(OC)cc2)C1 (centres undefined) = 118 to 121 °C
COc1cc(CCCCCCC2OC(=O)NC2=O)ccc1OCc1nc(-c2ccccc2)oc1C (centres undefined) = 113 to 117 °C
CC(=O)Nc1cccc(OC(Cn2ccnc2)c2ccc(Cl)cc2Cl)c1 (centres undefined) = 108 to 112 °C
CC1=C([N+](=O)[O-])C(c2ccccc2C(F)(F)F)c2c[nH]nc2N1 (centres undefined) = 257 to 258 °C

Next molecule, melting point to be filled in.
GET /values?readout=melting point&item= O=C(NCCn1ccnc1)c1sc2ccccc2c1Cl
132 to 134 °C

----------
# reported melting point; entries follow

Some compounds with recorded melting point:
CN(C)Cc1csc(N(C)CC#CI)n1 = 98 to 100 °C
Nc1ccc(Cn2c(=O)c3c(-c4noc(C5CC5)n4)ncn3c3ccccc32)cc1 = 246 to 248 °C
CC(C)(C)c1cc(CCc2ccccc2NC(=O)NCc2cccnc2)cc(C(C)(C)C)c1O = 163 to 164 °C
Oc1ccc(-c2noc3cc(O)ccc23)cc1 = 192 to 194 °C
CCN1CCN(Cc2ccc(-c3cc4c(NCc5cccc(Cl)c5)ncnc4[nH]3)cc2)CC1 = 241 to 243 °C
CCOC(=O)c1cc(OCC)c(OC(C)C)cc1N = 91 to 93 °C
Nc1ccc(Cl)cc1C(=O)c1c(F)cccc1F = 103 to 105 °C
O=C(Cc1ccc2ccccc2c1)Nc1cc(-c2ccncc2)[nH]n1 = 227 to 235 °C

GET /values?readout=melting point&item= CCOC(=O)c1cc(NC(=O)C2=C(CC)OCCS2)ccc1Cl
86 to 88 °C

----------
# reported melting point; entries follow

Some molecules with recorded melting point:
O=C(O)COCc1nn(Cc2ccc(F)cc2)c2ccccc12 = 135 to 136 °C
CCNC(=O)[C@H]1N(C(=O)[C@@H](O)[C@H](Cc2ccccc2)NC(=O)c2cc(C)cc(O)c2C)CC(F)(F)C1(C)C = 208 to 214 °C
CCOC(=O)Cc1ccc(NC2=NN(c3ccc(C)cc3)CC2)cc1 = 145 to 146 °C

GET /values?readout=melting point&item= CCCCCCc1cc2c(s1)-n1c(C)nnc1CN=C2c1cc(C)ccc1C
81 to 84 °C

Another molecule to look at: CC(C)(C)c1ccc(NC(=N)Nc2ccc(C(C)(C)C)cc2)cc1
161 to 162 °C

Another molecule to look at: CC(C)c1nc(-c2ccccc2)c(-c2ccccc2)c(-c2ccc(F)cc2)c1CO
169 to 171 °C

Another molecule to look at: CNC(=O)C(Cc1ccc(F)cc1)NC(=O)Nc1n[nH]c(=S)s1 (stereo not given)
225 to 227 °C

Another molecule to look at: CN1c2ccccc2NC(=S)c2cscc21
203 to 204 °C

Another molecule to look at: COC(=O)C1=C(CF)NC(C)=C(C(=O)OC(C)C)C1c1c(F)cccc1C(F)(F)F (stereo not given)
82 to 84 °C

Another molecule to look at: CS(=O)(=O)c1ccc(-c2cc(C(F)F)cn2-c2ccc(F)cc2)cc1
98 to 100 °C

Another molecule to look at: CCOC(=O)CC1CCCc2cc(C#N)ccc21 (stereo not given)
45 to 47 °C

Another molecule to look at: O=c1c(CCl)coc2c1COc1ccccc1-2
163 to 165 °C

Another molecule to look at: COC(=O)c1cccc(C)c1/C=C/Cc1c(OC)c(C)c2c(c1OC(C)=O)C(=O)OC2
104 to 111 °C

Another molecule to look at: CN(c1ccccc1)c1nc(N)nc2nc[nH]c12
147 to 152 °C

Another molecule to look at: CC#CCN(c1nc(-c2ccc(OC)cc2Cl)c(C)s1)C(COC)c1ccccc1 (stereo not given)
70 °C

----------
# reported melting point; entries follow

COc1cc(C(=O)N2CCC(C(=O)C3CCCCC3)CC2)c([N+](=O)[O-])cc1OC = 120 to 125 °C
COc1cn(-c2ccccc2F)nc(-c2ccnn2-c2ccccc2)c1=O = 163 to 165 °C
Cc1nc2nc(C(=O)NO)cc(S)n2n1 = 178 to 179 °C
CC(Nc1ncnc2c1ncn2C1OC(CO)C(O)C1O)c1ccccc1 (stereo not given) = 165 to 167 °C
Cc1nc(NC(=O)c2cnn3c(C(F)F)cc(-c4ccc(C(F)(F)F)cc4)nc23)sc1S(=O)(=O)NC(C)(CO)CO = 248 °C
ClCc1cn2cc(Cl)cc(Cl)c2n1 = 162 to 163 °C
Cc1nc2c(O)cc(C(=O)N(C)C)cc2n1COCC[Si](C)(C)C = 150 to 151 °C
COc1cc2c(cc1C(F)(F)F)N(C(=O)Nc1ccc(Oc3cccnc3)nc1)CC2 = 202 to 204 °C
NC(=O)C1CN1C(=O)Oc1ccccc1 (stereo not given) = 140 to 142 °C

Next compound, melting point to be filled in.
GET /values?readout=melting point&item= CC(C)(C)NCC(O)COc1cc(Cl)ccc1-c1ccc(=S)[nH]n1 (stereo not given)
195 to 198 °C

----------
# reported melting point; entries follow

COCCOCOc1ccc2cc(C(=O)CNCc3cccc(-c4ccc(Nc5ccccc5C(=O)O)cc4)c3)ccc2c1 = 72 °C
CCOC(=O)c1nc(SC)n2c1c(=O)n(C)c1cc(C(F)(F)F)ccc12 = 202 to 204 °C
CCC(O)(c1ccccc1)c1ccccc1 = 93 to 94 °C
O=C1N(c2ccc(Cl)cc2F)C(=S)C2CCCCC12O (stereo not given) = 156 to 157 °C

Next compound, melting point to be filled in.
GET /values?readout=melting point&item= CCC(C)(C)Nc1c(NCc2cc3cc(C#N)ccc3o2)c(=O)c1=O
171 to 173 °C

----------
OUTCOME_MEASURE: melting point (°C)

Some molecules with recorded melting point:
Cc1cc(-c2cnn3c(C(F)(F)F)cc(-c4ccc(Cl)c(C)c4)nc23)cc(C)n1 = 254
COC(=O)c1ccc(CBr)c(SC(=O)c2ccc(C(C)(C)C)cc2)c1 = 152

1. Cc1ccc(S(=O)(=O)n2c(I)cc3cc(F)cnc32)cc1
2. O=C(NC(=O)c1ccc(C(F)(F)F)cc1)Nc1ccc(Cl)cc1
3. Cn1c(C2CC2)nc2c1CCCC2=O
List these items ordered by melting point, big to small. Would you mind listing the labels in the order requested?
2, 1, 3

----------
# reported melting point; entries follow

O=c1nc(-c2ccccc2F)c2c3c(sc2[nH]1)CCCC3 = 274 to 277 °C
CCCCc1oc2ccccc2c1Cc1ccc(O)cc1 = 67 to 70 °C
CC1(C)OC(=O)Nc2ccc(-c3cc(F)cc(F)c3)cc21 = 218 to 219 °C
C=C1CC2C3CCC4=CC(=O)CCC4(C)C3=CCC2(C)C1(O)C(C)=O (stereo not given) = 147 to 162 °C
O=C(CCCC1(c2ccccc2)CC(O)=C(SCc2ccccc2)C(=O)O1)NCc1ccccc1 (stereo not given) = 48 to 52 °C
CC1(C(=O)O)Oc2ccc(Cl)cc2C(C)(c2ccccc2)O1 (stereo not given) = 181 °C

GET /values?readout=melting point&item= COc1cc(NC(=O)C(C#N)=CNc2ccc(OC)c(OCCCCl)c2)c(Cl)cc1Cl
185 to 192 °C

Another compound to look at: CC12OCC(CO)(CO1)CO2
110 to 112 °C

Another compound to look at: CCc1ccc2nc(N)nc(Nc3ccccc3C)c2c1
263 to 265 °C

Another compound to look at: CCc1nc2cccc(C(=O)O)c2n1Cc1ccc(-c2ccccc2-c2nnn[nH]2)cc1
261 to 262 °C
